# TARGET_OF_ASSAY: T1, FAT domain of Focal Adhesion Kinase, wild type (hFAK904-1052) (human, UniProt Q05397 904-1052)
# T1 construct: focal adhesion kinase (FAK), human, FAT domain, residues 904-1052 (hFAK904-1052); also called FAT-WT; source: E. coli BL21(DE3), purified (His-Trap, TEV digest, Source 15Q, Ni-NTA flow-through, Superdex200); not shown: His6, N-terminal, cleaved
# T1 sequence (looked up): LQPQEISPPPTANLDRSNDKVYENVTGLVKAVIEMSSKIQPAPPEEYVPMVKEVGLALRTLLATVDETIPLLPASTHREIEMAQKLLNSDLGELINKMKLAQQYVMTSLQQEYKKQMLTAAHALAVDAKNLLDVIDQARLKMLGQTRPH
# EXPERIMENT_SUMMARY: fluorescence polarisation; fluorescence anisotropy; protein titrated (typically up to 50 µM) at 25 nM FITC labelled LD peptide; 20 mM Tris pH7.5, 150 mM NaCl, 1mM TCEP; 22 °C; one-site binding model; apparent KD
# ASSAY_CONDITIONS: both partners purified
OUTCOME_MEASURE: pKd
Conceptually, pKd converts a concentration in mol/L into minus its log10.

Problem: Could you share which pKd value was measured for paxillin LD2/4 peptide (LD2 and LD4 motifs separated by a designed linker) (also: FITC label, position not given here) SNLSELDRLLLELNAVQHNGSGSGGSGGSGGSGGSGGSGGSGGSGGSATRELDELMASLSD ?
Result: 6.89
